Molecular target: ERR-α (Homo sapiens)
Assay: LC/MS dissociation rate with 20-fold excess Compound 2 as competing ligand
Assay type: binding
Parameters: made in house; host or cells: Spodoptera frugiperda (Sf9) insect cells, baculovirus
Conditions: ligand 1 μM, ERR-α 0.5 μM, competing ligand 20 μM, 37° C., assumed first order
Sequence (P11474 with tags, fused parts or gaps): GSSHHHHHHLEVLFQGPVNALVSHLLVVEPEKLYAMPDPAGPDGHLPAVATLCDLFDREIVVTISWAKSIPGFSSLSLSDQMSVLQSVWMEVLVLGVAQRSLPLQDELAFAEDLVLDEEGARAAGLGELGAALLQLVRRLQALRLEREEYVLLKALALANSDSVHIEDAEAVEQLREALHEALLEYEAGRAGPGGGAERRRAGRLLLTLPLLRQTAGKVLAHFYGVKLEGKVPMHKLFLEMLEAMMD
MEASURED PARAMETER: kd (s⁻¹)

COc1cc(/C=C2\SC(=O)NC2=O)ccc1Oc1ccc(C#N)cc1C(F)(F)F [Compound 1]	1.1e-05

1. COc1cc(/C=C2\SC(N3CCN(C)CC3)=NC2=O)ccc1Oc1ccc(C#N)cc1C(F)(F)F [Compound 3]
2. CN1CCN(C2=NC(=O)/C(=C/c3ccc(Oc4ccc(C#N)cc4C(F)(F)F)c(F)c3)S2)CC1 [Compound 4]
Which of these two has the smaller recorded kd: 1 or 2 ? In your reply, give the label of the chosen option. 1
(1: 1.53e-05 s⁻¹, 2: 2.19e-05 s⁻¹)

* * *

Target: ERR-α (Homo sapiens)
Test: biochemical
Sequence (P11474 with tags, fused parts or gaps limits assumed): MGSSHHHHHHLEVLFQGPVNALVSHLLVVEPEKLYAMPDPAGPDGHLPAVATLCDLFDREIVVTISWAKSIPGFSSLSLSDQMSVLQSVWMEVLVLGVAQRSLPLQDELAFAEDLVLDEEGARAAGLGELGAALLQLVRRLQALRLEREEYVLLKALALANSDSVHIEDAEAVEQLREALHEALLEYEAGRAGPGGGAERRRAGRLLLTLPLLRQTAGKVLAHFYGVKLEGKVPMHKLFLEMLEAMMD
MEASURED PARAMETER: EC50 (nM)
Give the number; nM is assumed, so skip it.

Can you share its EC50? I mean this compound: COC(=O)c1ccc(Oc2ccc(/C=C3\SC(=O)NC3=O)cc2OC)c(C(F)(F)F)c1 [Compound 2] 11
